Hello, the source for this data is paper PMC5862567, in case you need it.

TESTED TARGET: sPHGDH (aa 3-314), cofactor-binding pocket (Homo sapiens, UniProt O43175)
Construct: the truncated version (sPHGDH, aa 3-314); His6 (N, cleaved yes); TEV protease recognition site (N, cleaved yes); made in house; host or cells: E. coli Rosetta (DE3)
Sequence (O43175 3-314): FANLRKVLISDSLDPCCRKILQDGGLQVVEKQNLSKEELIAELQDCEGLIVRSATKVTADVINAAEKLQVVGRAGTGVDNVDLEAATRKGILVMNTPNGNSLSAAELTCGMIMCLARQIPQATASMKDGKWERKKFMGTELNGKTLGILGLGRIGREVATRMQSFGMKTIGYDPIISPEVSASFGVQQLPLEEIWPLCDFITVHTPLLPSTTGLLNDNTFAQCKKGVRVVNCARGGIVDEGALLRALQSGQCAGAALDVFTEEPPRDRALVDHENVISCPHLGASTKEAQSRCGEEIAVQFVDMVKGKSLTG
ASSAY PROCEDURE: ITC competition experiment (NADH titrated into sPHGDH premixed with fragment)
DETAILS: competition ITC; 5 mM fragment; 25 °C
Listed below: ΔH values for each entry.
Dear colleague, please return just the value in kcal/mol, with no unit written.

Record excerpt, results attached:
MOLECULE	SCALE UNIT	ΔH
Cn1nc(-c2ccccc2)cc1N	kcal/mol	-111.7
Cc1ccc(F)cc1C(=O)O	kcal/mol	-11.2
NC(=O)c1ccc(F)c(Cl)c1 [Fragment 5, 3-Chloro-4-fluorobenzamide]	kcal/mol	-1.29
Oc1noc2ccc(F)cc12 [Fragment 19, 5-fluoro-3-hydroxybenzisoxazole]	kcal/mol	-45.43
Cn1ccc2cc(N)ccc21	kcal/mol	-24.38

INPUT: Form field: reported ΔH of c1ccc(Cn2ccnc2)cc1
OUTPUT: -15.4

INPUT: Form field: reported ΔH of Cc1cncc(Oc2cccc(N)c2)n1
OUTPUT: -2.75

INPUT: Form field: reported ΔH of Oc1noc2ccccc12 [Fragment 16, 3-Hydroxy benzisoxazole]
OUTPUT: -91.44

INPUT: Form field: reported ΔH of O=C1COc2cc(O)ccc21
OUTPUT: -69.96

INPUT: Form field: reported ΔH of Oc1noc2cc(Cl)ccc12 [Fragment 17, 6-chloro-3-hydroxybenzisoxazole]
OUTPUT: -362.64

INPUT: Form field: reported ΔH of Cc1cccc2c(O)noc12
OUTPUT: -46.44

INPUT: Form field: reported ΔH of Nc1cccc(-c2cnco2)c1
OUTPUT: -62.33
